Below, each of the compounds is paired with its reported relative viability value.
System: NCI-H647
assayMethodText: relative viability (nuclei count vs DMSO), 5 days (fraction); higher = more cells survive
recordedConditions: first compound 0.1265 µM

compound: C[C@@H]1CN(CC(=O)Nc2ccc3c(c2)Cc2cccc(-c4cc(=O)cc(N5CCOCC5)o4)c2S3)C[C@H](C)O1 + COc1cc2c(Oc3ccc(NC(=O)C4(C(=O)Nc5ccc(F)cc5)CC4)cc3F)ccnc2cc1OCCCN1CCOCC1 [Foretinib] (partner 0.25 µM)
relative viability: 1.17
//
compound: COc1cc(N2CCC(C(N)=O)CC2)ccc1Nc1nc(N)c(Cl)c(Nc2ccccc2S(=O)(=O)C(C)C)n1 [HG-5-88-01] + CC1(C)CCC(c2ccc(Cl)cc2)=C(CN2CCN(c3ccc(C(=O)NS(=O)(=O)c4ccc(N[C@H](CCN5CCOCC5)CSc5ccccc5)c(S(=O)(=O)C(F)(F)F)c4)cc3)CC2)C1 [Navitoclax] (partner 0.5 µM)
relative viability: 1.26

----------
Tested on: NCI-H2347
assayMethodText: relative viability (nuclei count vs DMSO), 5 days (fraction); higher = more cells survive
recordedConditions: first compound 0.04 µM
Catalogue of relative viability values

compound: Clc1ccc(Nc2nnc(Cc3ccncc3)c3ccccc23)cc1 [Vatalanib] + CC(=O)Nc1cccc(-n2c(=O)n(C3CC3)c(=O)c3c(Nc4ccc(I)cc4F)n(C)c(=O)c(C)c32)c1 [Trametinib] (partner 0.02 µM)
relative viability: 0.278
//
compound: C[C@@H]1CN(CC(=O)Nc2ccc3c(c2)Cc2cccc(-c4cc(=O)cc(N5CCOCC5)o4)c2S3)C[C@H](C)O1 + C[C@]1(O)C[C@@H](c2nc(-c3ccc4ccc(-c5ccccc5)nc4c3)c3c(N)nccn32)C1 [Linsitinib] (partner 1 µM)
relative viability: 0.883
//
compound: Clc1ccc(Nc2nnc(Cc3ccncc3)c3ccccc23)cc1 [Vatalanib] + CS(=O)(=O)N1CCN(Cc2cc3nc(-c4cccc5[nH]ncc45)nc(N4CCOCC4)c3s2)CC1 [Pictilisib] (partner 1 µM)
relative viability: 0.709
//
compound: COc1cc(N2CCC(C(N)=O)CC2)ccc1Nc1nc(N)c(Cl)c(Nc2ccccc2S(=O)(=O)C(C)C)n1 [HG-5-88-01] + N=C(N)NC(=N)NCCc1ccccc1 [Phenformin] (partner 250 µM)
relative viability: 0.295

----------
System: NCI-H727
assayMethodText: relative viability (nuclei count vs DMSO), 5 days (fraction); higher = more cells survive
recordedConditions: first compound 0.01 µM

compound: CC(C)Oc1cc(Nc2nc(N[C@@H](C)c3ccc(F)cn3)ncc2Cl)n[nH]1 [AZ23] + CS(=O)(=O)N1CCN(Cc2cc3nc(-c4cccc5[nH]ncc45)nc(N4CCOCC4)c3s2)CC1 [Pictilisib] (partner 1 µM)
testedTarget: NCI-H727
relative viability: 0.268
//
compound: CC(C)Oc1cc(Nc2nc(N[C@@H](C)c3ccc(F)cn3)ncc2Cl)n[nH]1 [AZ23] + CC(C)C[C@H](NC(=O)[C@H](Cc1ccccc1)NC(=O)c1cnccn1)B(O)O [Bortezomib] (partner 0.002 µM)
testedTarget: NCI-H727
relative viability: 0.855
//
compound: CC(C)Oc1cc(Nc2nc(N[C@@H](C)c3ccc(F)cn3)ncc2Cl)n[nH]1 [AZ23] + Cc1nc(Nc2ncc(C(=O)Nc3c(C)cccc3Cl)s2)cc(N2CCN(CCO)CC2)n1 [Dasatinib] (partner 0.075 µM)
testedTarget: NCI-H727
relative viability: 0.393

----------
Tested on: NCI-H1755
assayMethodText: relative viability (nuclei count vs DMSO), 5 days (fraction); higher = more cells survive
recordedConditions: first compound 1.265 µM
Measured relative viability, listed per entry.
measuredParameter: relative viability

compound: COc1cc(N2CCC(C(N)=O)CC2)ccc1Nc1nc(N)c(Cl)c(Nc2ccccc2S(=O)(=O)C(C)C)n1 [HG-5-88-01] + COc1cccc2cc(-c3nc([C@H]4CC[C@H](C(=O)O)CC4)n4ncnc(N)c34)[nH]c12 [OSI-027] (partner 0.5 µM)
testedTarget: NCI-H1755
measuredParameter: relative viability
quantitativeReadout: 0.686
--
compound: Clc1ccc(Nc2nnc(Cc3ccncc3)c3ccccc23)cc1 [Vatalanib] + NC(=O)Nc1cc(-c2cccc(F)c2)sc1C(=O)N[C@H]1CCCNC1 [AZD7762] (partner 0.2 µM)
testedTarget: NCI-H1755
measuredParameter: relative viability
quantitativeReadout: 0.418
--
compound: COc1cc(N2CCC(C(N)=O)CC2)ccc1Nc1nc(N)c(Cl)c(Nc2ccccc2S(=O)(=O)C(C)C)n1 [HG-5-88-01] + Cc1nc(NC(=O)N2CCC[C@H]2C(N)=O)sc1-c1ccnc(C(C)(C)C(F)(F)F)c1 [Alpelisib] (partner 2 µM)
testedTarget: NCI-H1755
measuredParameter: relative viability
quantitativeReadout: 0.897
--
compound: Clc1ccc(Nc2nnc(Cc3ccncc3)c3ccccc23)cc1 [Vatalanib] + COc1cccc2cc(-c3nc([C@H]4CC[C@H](C(=O)O)CC4)n4ncnc(N)c34)[nH]c12 [OSI-027] (partner 0.5 µM)
testedTarget: NCI-H1755
measuredParameter: relative viability
quantitativeReadout: 0.654
--
compound: Clc1ccc(Nc2nnc(Cc3ccncc3)c3ccccc23)cc1 [Vatalanib] + Cc1nc(NC(=O)N2CCC[C@H]2C(N)=O)sc1-c1ccnc(C(C)(C)C(F)(F)F)c1 [Alpelisib] (partner 2 µM)
testedTarget: NCI-H1755
measuredParameter: relative viability
quantitativeReadout: 0.857
--
compound: COc1cc(N2CCC(C(N)=O)CC2)ccc1Nc1nc(N)c(Cl)c(Nc2ccccc2S(=O)(=O)C(C)C)n1 [HG-5-88-01] + CC(=O)c1c(C)c2cnc(Nc3ccc(N4CCNCC4)cn3)nc2n(C2CCCC2)c1=O [Palbociclib] (partner 0.5 µM)
testedTarget: NCI-H1755
measuredParameter: relative viability
quantitativeReadout: 0.419

----------
Tested on: NCI-H2342
assayMethodText: relative viability (nuclei count vs DMSO), 5 days (fraction); higher = more cells survive
recordedConditions: first compound 0.4 µM
relative viability for assorted compounds

compound: C[C@@H]1CN(CC(=O)Nc2ccc3c(c2)Cc2cccc(-c4cc(=O)cc(N5CCOCC5)o4)c2S3)C[C@H](C)O1 + CC(=O)Nc1cccc(-n2c(=O)n(C3CC3)c(=O)c3c(Nc4ccc(I)cc4F)n(C)c(=O)c(C)c32)c1 [Trametinib] (partner 0.02 µM)
relative viability: 0.818

compound: C[C@@H]1CN(CC(=O)Nc2ccc3c(c2)Cc2cccc(-c4cc(=O)cc(N5CCOCC5)o4)c2S3)C[C@H](C)O1 + Cc1nc(Nc2ncc(C(=O)Nc3c(C)cccc3Cl)s2)cc(N2CCN(CCO)CC2)n1 [Dasatinib] (partner 0.075 µM)
relative viability: 0.29

compound: Clc1ccc(Nc2nnc(Cc3ccncc3)c3ccccc23)cc1 [Vatalanib] + Cc1nc(Nc2ncc(C(=O)Nc3c(C)cccc3Cl)s2)cc(N2CCN(CCO)CC2)n1 [Dasatinib] (partner 0.075 µM)
relative viability: 0.278

compound: Clc1ccc(Nc2nnc(Cc3ccncc3)c3ccccc23)cc1 [Vatalanib] + COc1cc2c(Oc3ccc(NC(=O)C4(C(=O)Nc5ccc(F)cc5)CC4)cc3F)ccnc2cc1OCCCN1CCOCC1 [Foretinib] (partner 0.25 µM)
relative viability: 1.08

compound: COc1cc(N2CCC(C(N)=O)CC2)ccc1Nc1nc(N)c(Cl)c(Nc2ccccc2S(=O)(=O)C(C)C)n1 [HG-5-88-01] + CC(=O)Nc1cccc(-n2c(=O)n(C3CC3)c(=O)c3c(Nc4ccc(I)cc4F)n(C)c(=O)c(C)c32)c1 [Trametinib] (partner 0.02 µM)
relative viability: 0.865

----------
Reported relative viability values follow for various molecules
Test system: NCI-H647
assayMethodText: relative viability (nuclei count vs DMSO), 5 days (fraction); higher = more cells survive
recordedConditions: first compound 4 µM

molecule: COc1cc(N2CCC(C(N)=O)CC2)ccc1Nc1nc(N)c(Cl)c(Nc2ccccc2S(=O)(=O)C(C)C)n1 [HG-5-88-01] + Cc1nc(NC(=O)N2CCC[C@H]2C(N)=O)sc1-c1ccnc(C(C)(C)C(F)(F)F)c1 [Alpelisib] (partner 2 µM)
relative viability: 1.4

molecule: C[C@@H]1CN(CC(=O)Nc2ccc3c(c2)Cc2cccc(-c4cc(=O)cc(N5CCOCC5)o4)c2S3)C[C@H](C)O1 + Cc1nc(Nc2ncc(C(=O)Nc3c(C)cccc3Cl)s2)cc(N2CCN(CCO)CC2)n1 [Dasatinib] (partner 0.075 µM)
relative viability: 0.146

----------
Test system: HCC-78
assayMethodText: relative viability (nuclei count vs DMSO), 5 days (fraction); higher = more cells survive
recordedConditions: first compound 2.53 µM
relative viability strictly under 0.6 means Criterion met; at 0.6 or over means Criterion not met.

compound: CCCCCCCCCCCC1=C(O)C(=O)C=C(O)C1=O [Embelin] + C[C@]1(O)C[C@@H](c2nc(-c3ccc4ccc(-c5ccccc5)nc4c3)c3c(N)nccn32)C1 [Linsitinib] (partner 1 µM)
groupLabel: Criterion met
--
compound: CCCCCCCCCCCC1=C(O)C(=O)C=C(O)C1=O [Embelin] + CS(=O)(=O)CCNCc1ccc(-c2ccc3ncnc(Nc4ccc(OCc5cccc(F)c5)c(Cl)c4)c3c2)o1 [Lapatinib] (partner 2 µM)
groupLabel: Criterion not met
--
compound: CCCCCCCCCCCC1=C(O)C(=O)C=C(O)C1=O [Embelin] + Nc1nc2[nH]cc(CCc3ccc(C(=O)N[C@@H](CCC(=O)O)C(=O)O)cc3)c2c(=O)[nH]1 [Pemetrexed] (partner 0.2 µM)
groupLabel: Criterion not met
--
compound: CCCCCCCCCCCC1=C(O)C(=O)C=C(O)C1=O [Embelin] + O=C(CCCCCCC(=O)Nc1ccccc1)NO [Vorinostat] (partner 1 µM)
groupLabel: Criterion met
--
compound: CCCCCCCCCCCC1=C(O)C(=O)C=C(O)C1=O [Embelin] + Cc1nc(NC(=O)N2CCC[C@H]2C(N)=O)sc1-c1ccnc(C(C)(C)C(F)(F)F)c1 [Alpelisib] (partner 2 µM)
groupLabel: Criterion met
--
compound: CCCCCCCCCCCC1=C(O)C(=O)C=C(O)C1=O [Embelin] + COc1cc2c(Oc3ccc(NC(=O)C4(C(=O)Nc5ccc(F)cc5)CC4)cc3F)ccnc2cc1OCCCN1CCOCC1 [Foretinib] (partner 0.25 µM)
groupLabel: Criterion not met
--
compound: CCCCCCCCCCCC1=C(O)C(=O)C=C(O)C1=O [Embelin] + N=C(N)NC(=N)NCCc1ccccc1 [Phenformin] (partner 250 µM)
groupLabel: Criterion not met

Where these numbers come from: the supplement of paper PMC10307832
